Data origin, for the record: patent US20060165766A1

assay.notes: Osmolality measurements: contribution of amphipathic base to osmotic pressure of salt solutions (aggregation)
Assay type: physicochemical
experimental.setup: slope of osmolality (mOsm) versus concentration (mM)
# label = Y if mOsm versos mM (slope); extent of dissociation < 3 else N

- compound: "N.N.O=P(O)(O)O [(NH4)2HPO4, ammonium phosphate, dibasic]"
  group: "Y"
- compound: "N.O=C[C@H](O)[C@@H](O)[C@H](O)[C@H](O)C(=O)O [NH4 glucuronate, Ammonium glucuronate]"
  group: "Y"
- compound: "N.N.N.O=C(O)CC(O)(CC(=O)O)C(=O)O [(NH4)3 citrate, ammonium citrate, tribasic]"
  group: "N"
- compound: "[Cl-].[Na+]"
  group: "Y"
- compound: "Cl.N [NH4Cl, Ammonium chloride]"
  group: "Y"
